Data origin: ChEMBL document CHEMBL1275526

Entries and their Activity
test system: Saccharomyces cerevisiae; assay: Antifungal activity against Saccharomyces cerevisiae BY4741 harboring human CYP51 assessed as growth rate at 0.5 ug/ml (reference value: 0.157%); assay type: functional; conditions: at 0.5 µg/mL
endpoint.name: Activity (%)

Clc1ccccc1C(c1ccccc1)(c1ccccc1)n1ccnc1 [CLOTRIMAZOLE] | 0.162
CCC(C)n1ncn(-c2ccc(N3CCN(c4ccc(OCC5COC(Cn6cncn6)(c6ccc(Cl)cc6Cl)O5)cc4)CC3)cc2)c1=O (centres undefined) [ITRACONAZOLE] | 0.166
C[C@@H](c1ncncc1F)[C@](O)(Cn1cncn1)c1ccc(F)cc1F [VORICONAZOLE] | 0.153
Clc1ccc(COC(Cn2ccnc2)c2ccc(Cl)cc2Cl)c(Cl)c1 (centres undefined) [MICONAZOLE] | 0.174
